Quick list: LD50 per entry.
# method_notes: Righting reflex experiment on mice
# protocol_conditions: both, ICR, mouse, in vivo, iv
Use mg/kg as the unit, but write only the number.

| compound | LD50, mg/kg |
| --- | --- |
| C[C@H](c1cccc([C@@H](C)C2CC2)c1O)C1CC1 [Compound 20, 2,6-bis[(1S)-1-cyclopropylethyl]phenol] | 150 |
| COc1cccc(C(C)C2CC2)c1O (stereo not drawn) | 67 |
| CC(C)c1cccc([C@H](C)C2CCC2)c1O | 38.2 |
| CCC(C)c1cccc(C(C)C2CC2)c1O (stereo not drawn) | 38.1 |
| CC(c1cccc(C2CC2)c1O)C1CC1 (stereo not drawn) | 80 |

Prompt line: Can you share its LD50? I mean this compound: CC(c1cccc(C(C)C2CC2)c1O)C1CC1 (stereo not drawn)
Response line: 20

Prompt line: Can you share its LD50? I mean this compound: `CC[C@H](C)c1cccc([C@@H](C)C2CC2)c1O`
Response line: 36.8

Prompt line: Can you share its LD50? I mean this compound: `C[C@H](c1cccc([C@H](C)C2CC2)c1O)C1CC1`
Response line: 6.3

Prompt line: Can you share its LD50? I mean this compound: CC(C)c1cccc(C(C)C2CCC2)c1O (stereo not drawn)
Response line: 40

Prompt line: Can you share its LD50? I mean this compound: `CC[C@H](C)c1cccc([C@H](C)C2CC2)c1O`
Response line: 14.3

Prompt line: Can you share its LD50? I mean this compound: `CC[C@@H](C)c1cccc([C@@H](C)C2CC2)c1O`
Response line: 65.4
